Observed Ki for JAK-2 enzyme (Homo sapiens), reported per entry below.

Worked set:
>  <molecule>
CC(C)[C@H](Nc1cc(-c2c(N)nn3ccc(C(F)(F)F)nc23)ncn1)c1ccc(F)cc1F [Compound 136]

>  <target system>
JAK-2 enzyme (Homo sapiens)

>  <value measured>
10 to 100 nM

$$$$
>  <molecule>
O=C(Nc1ccnc(-c2cnn3cccnc23)c1)c1ccc(F)c(F)c1 [Compound 231]

>  <target system>
JAK-2 enzyme (Homo sapiens)

>  <value measured>
100 to 500 nM

$$$$
>  <molecule>
C=CCCCOc1nc(N[C@@H](C)c2ccc(F)cc2)cc(-c2c(N)nn3cccnc23)n1 [Compound 182]

>  <target system>
JAK-2 enzyme (Homo sapiens)

>  <value measured>
10 to 100 nM

$$$$
>  <molecule>
C[C@H](Nc1cc(-c2cnn3cccnc23)nc(OCCN2CCNCC2)n1)c1ccc(F)cc1F [Compound 210]

>  <target system>
JAK-2 enzyme (Homo sapiens)

>  <value measured>
< 10 nM

$$$$
>  <molecule>
CC#CCOc1nc(N[C@@H](C)c2ccc(F)cc2)cc(-c2c(N)nn3cccnc23)n1 [Compound 151]

>  <target system>
JAK-2 enzyme (Homo sapiens)

>  <value measured>
10 to 100 nM

$$$$
>  <molecule>
Nc1nn2cccnc2c1-c1cc(OCc2ccc(C(F)(F)F)cc2)ncn1 [Compound 72]

>  <target system>
JAK-2 enzyme (Homo sapiens)

>  <value measured>
100 to 500 nM

$$$$

Form field Ki, entry COC(C)(C)CCOc1nc(N[C@@H](C)c2ccc(F)cc2F)cc(-c2cnn3cccnc23)n1 [Compound 194] : 10 to 100 nM

Notebook: CNC(=O)CC(Nc1cc(-c2cnn3cccnc23)ncn1)c1ccc(F)cc1 (centres unmarked) [Compound 141] , Ki read as < 10 nM

----------
What follows is a collection of pKi values obtained with JAK-2 enzyme (Homo sapiens, UniProt O60674).
Sequence (O60674 whole entry): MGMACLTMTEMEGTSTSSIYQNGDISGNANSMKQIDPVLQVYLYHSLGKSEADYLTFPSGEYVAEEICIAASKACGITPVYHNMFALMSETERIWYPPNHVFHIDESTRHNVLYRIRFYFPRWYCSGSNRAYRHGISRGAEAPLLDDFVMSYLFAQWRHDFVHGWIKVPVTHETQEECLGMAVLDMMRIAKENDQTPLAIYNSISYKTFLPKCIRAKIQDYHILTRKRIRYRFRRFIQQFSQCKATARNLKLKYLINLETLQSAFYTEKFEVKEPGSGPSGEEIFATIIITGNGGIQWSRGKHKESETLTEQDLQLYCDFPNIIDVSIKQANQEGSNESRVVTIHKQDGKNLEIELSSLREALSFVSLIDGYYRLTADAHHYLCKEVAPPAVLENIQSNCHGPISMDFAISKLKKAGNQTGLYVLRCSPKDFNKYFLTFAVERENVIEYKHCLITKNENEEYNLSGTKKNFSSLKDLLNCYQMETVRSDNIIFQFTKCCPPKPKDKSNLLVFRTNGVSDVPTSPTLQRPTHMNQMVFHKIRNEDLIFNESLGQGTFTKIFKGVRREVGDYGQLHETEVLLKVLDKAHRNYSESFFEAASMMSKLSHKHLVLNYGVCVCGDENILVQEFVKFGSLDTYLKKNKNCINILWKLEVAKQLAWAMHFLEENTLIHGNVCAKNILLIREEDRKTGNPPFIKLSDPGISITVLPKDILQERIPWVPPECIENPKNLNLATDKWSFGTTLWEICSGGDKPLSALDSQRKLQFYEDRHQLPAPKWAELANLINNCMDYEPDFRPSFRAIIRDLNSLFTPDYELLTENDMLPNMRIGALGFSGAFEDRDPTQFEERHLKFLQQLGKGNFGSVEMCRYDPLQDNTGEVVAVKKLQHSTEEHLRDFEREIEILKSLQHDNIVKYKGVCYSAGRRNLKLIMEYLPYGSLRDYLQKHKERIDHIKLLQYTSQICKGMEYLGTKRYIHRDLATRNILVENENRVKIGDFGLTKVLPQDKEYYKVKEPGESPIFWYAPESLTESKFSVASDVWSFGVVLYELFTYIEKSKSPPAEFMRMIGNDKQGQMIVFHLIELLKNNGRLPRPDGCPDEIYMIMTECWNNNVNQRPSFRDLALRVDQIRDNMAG
pKi: −log10 of the molar value.

>  <molecule>
C[C@H](Nc1cc(-c2c(N)nn3cccnc23)nc(OC[C@H]2CO2)n1)c1ccc(F)cc1

>  <pKi>
> 8.00

$$$$

CSCCOc1nc(N[C@@H](C)c2ccc(F)cc2F)cc(-c2cnn3cccnc23)n1 on JAK-2 enzyme (Homo sapiens, UniProt O60674) gives pKi = > 8.00

Field pKi (system: JAK-2 enzyme (Homo sapiens, UniProt O60674)) for entry C[C@H](Nc1cc(-c2cnn3cccnc23)nc(OC2CCNC2)n1)c1ccc(F)cc1F (stereo partly shown) = 7.00 to 8.00

# C[C@H](Nc1cc(-c2c(N)nn3cccnc23)nc(OCC2CC2)n1)c1ccc(F)cc1 with JAK-2 enzyme (Homo sapiens, UniProt O60674): pKi is > 8.00

----------
Please consider the recorded Ki for JAK-2 enzyme (Homo sapiens) in what follows.

Consider the worked cases shown below.
>  <molecule>
CCC[C@H](Nc1cc(-c2c(N)nn3cccnc23)nc(S(C)(=O)=O)n1)c1ccc(F)cc1

>  <target system>
JAK-2 enzyme (Homo sapiens)

>  <reported property>
Ki

>  <value measured>
< 10 nM

$$$$
>  <molecule>
Nc1nn2cccnc2c1-c1cc(N2CCCC2c2ccccc2)ncn1 (centres unmarked)

>  <target system>
JAK-2 enzyme (Homo sapiens)

>  <reported property>
Ki

>  <value measured>
< 10 nM

$$$$
>  <molecule>
C[C@H](Nc1cc(-c2cnn3cccnc23)ncn1)c1ccc(F)cc1

>  <target system>
JAK-2 enzyme (Homo sapiens)

>  <reported property>
Ki

>  <value measured>
< 10 nM

$$$$
>  <molecule>
Nc1nn2cccnc2c1-c1cc(NCc2ccsc2Br)ncn1

>  <target system>
JAK-2 enzyme (Homo sapiens)

>  <reported property>
Ki

>  <value measured>
< 10 nM

$$$$
>  <molecule>
C[C@H](Nc1cc(-c2c(N)nn3cccnc23)ncn1)c1ccc(Cl)cc1F

>  <target system>
JAK-2 enzyme (Homo sapiens)

>  <reported property>
Ki

>  <value measured>
< 10 nM

$$$$
>  <molecule>
CCC1c2ccccc2CCN1c1cc(-c2c(N)nn3cccnc23)ncn1 (centres unmarked)

>  <target system>
JAK-2 enzyme (Homo sapiens)

>  <reported property>
Ki

>  <value measured>
< 10 nM

$$$$
>  <molecule>
O=C(Nc1ccnc(-c2cnn3cccnc23)c1)c1ccc(F)cc1F

>  <target system>
JAK-2 enzyme (Homo sapiens)

>  <reported property>
Ki

>  <value measured>
100 to 500 nM

$$$$
>  <molecule>
C[C@H](Oc1cc(-c2c(N)nn3cccnc23)ncn1)c1ccccc1

>  <target system>
JAK-2 enzyme (Homo sapiens)

>  <reported property>
Ki

>  <value measured>
< 10 nM

$$$$

For Nc1nn2cccnc2c1-c1cc(NCc2cc(C(F)(F)F)ccc2F)ncn1 on JAK-2 enzyme (Homo sapiens), measured Ki was 10 to 100 nM

Ki on JAK-2 enzyme (Homo sapiens) for CC#CCCOc1nc(N[C@@H](C)c2ccc(F)cc2)cc(-c2c(N)nn3cccnc23)n1 is < 10 nM
